src = patent US20240384268A1

- Tested system: human TLR7 (Homo sapiens, UniProt Q9NYK1)
- Construct: HA; host or cells: 293XL-hTLR7-HA (HEK293)
- Sequence (Q9NYK1 27-1049): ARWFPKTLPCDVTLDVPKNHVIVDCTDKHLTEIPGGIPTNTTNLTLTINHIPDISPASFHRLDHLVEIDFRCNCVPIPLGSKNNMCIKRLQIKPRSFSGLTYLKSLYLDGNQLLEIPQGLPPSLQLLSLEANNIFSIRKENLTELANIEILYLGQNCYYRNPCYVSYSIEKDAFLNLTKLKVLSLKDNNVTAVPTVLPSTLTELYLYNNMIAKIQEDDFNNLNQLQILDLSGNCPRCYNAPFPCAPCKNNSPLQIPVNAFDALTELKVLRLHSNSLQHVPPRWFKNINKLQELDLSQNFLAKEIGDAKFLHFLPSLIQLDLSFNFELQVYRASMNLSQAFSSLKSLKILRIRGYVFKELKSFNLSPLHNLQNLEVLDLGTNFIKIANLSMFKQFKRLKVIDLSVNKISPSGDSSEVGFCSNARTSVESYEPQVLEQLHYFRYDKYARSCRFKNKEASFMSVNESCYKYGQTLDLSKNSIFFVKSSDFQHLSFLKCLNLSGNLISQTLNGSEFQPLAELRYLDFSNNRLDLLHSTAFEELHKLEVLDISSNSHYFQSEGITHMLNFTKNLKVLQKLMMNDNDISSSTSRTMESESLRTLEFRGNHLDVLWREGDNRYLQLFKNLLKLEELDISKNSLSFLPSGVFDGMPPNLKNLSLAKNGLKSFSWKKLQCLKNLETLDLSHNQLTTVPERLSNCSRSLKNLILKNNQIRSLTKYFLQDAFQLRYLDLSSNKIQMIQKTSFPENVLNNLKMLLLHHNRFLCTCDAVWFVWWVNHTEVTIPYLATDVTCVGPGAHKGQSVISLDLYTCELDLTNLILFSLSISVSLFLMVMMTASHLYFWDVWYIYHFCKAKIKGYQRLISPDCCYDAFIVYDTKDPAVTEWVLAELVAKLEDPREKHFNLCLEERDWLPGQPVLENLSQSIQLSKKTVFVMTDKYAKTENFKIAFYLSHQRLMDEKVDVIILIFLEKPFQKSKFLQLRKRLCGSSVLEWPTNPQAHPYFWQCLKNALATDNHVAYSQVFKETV
- Measurement protocol: HEK-TLR7 NF-κB-luciferase reporter, R848 stimulation
- Format: cell-based
- Test parameters: ASO 500 nM; relative to R848 only, given as fraction
- Description: In such examples, inhibition of TLR7 activity can be identified by observation of an overall decreased TLR7 response of the cell population, or a lower proportion of cells having TLR7-positive activity as compared to positive control condition in which cells are treated with TLR7 agonist in the absence of the oligonucleotide (or in the presence of an appropriate control inhibitory agent). […] TLR7 activity can be determined by a luciferase assay, which measures activated NF-κB by luminescence. […]
Attribute measured: TLR7 500 nM (averaged NF-κB-Luciferase level relative to R848 condition)

| Sequence text | Tested system | Numeric result |
| --- | --- | --- |
| GCCATGTTTCTTCTTG (antisense; LNA-modified, pattern not given here) [MB21D1-1248 LNA KL] | human TLR7 (Homo sapiens, UniProt Q9NYK1) | 0.021 |
| CCAGCAGGTCAGCAAA (antisense; LNA-modified, pattern not given here) [HPRT LNA-388 KL] | human TLR7 (Homo sapiens, UniProt Q9NYK1) | 0.942 |
| GTGATCTTGACATGCT (antisense; LNA-modified, pattern not given here) [EGFR-2790 LNA KL] | human TLR7 (Homo sapiens, UniProt Q9NYK1) | 0.060 |
| GGCACTTTGCCTCCTT (antisense; LNA-modified, pattern not given here) [EGFR-2859 LNA V1] | human TLR7 (Homo sapiens, UniProt Q9NYK1) | 0.668 |
